# key: entry, value: binding signal
# Assay system: MSI1 full-length (mouse, UniProt Q61474 1-362)
# Sequence (Q61474 whole entry): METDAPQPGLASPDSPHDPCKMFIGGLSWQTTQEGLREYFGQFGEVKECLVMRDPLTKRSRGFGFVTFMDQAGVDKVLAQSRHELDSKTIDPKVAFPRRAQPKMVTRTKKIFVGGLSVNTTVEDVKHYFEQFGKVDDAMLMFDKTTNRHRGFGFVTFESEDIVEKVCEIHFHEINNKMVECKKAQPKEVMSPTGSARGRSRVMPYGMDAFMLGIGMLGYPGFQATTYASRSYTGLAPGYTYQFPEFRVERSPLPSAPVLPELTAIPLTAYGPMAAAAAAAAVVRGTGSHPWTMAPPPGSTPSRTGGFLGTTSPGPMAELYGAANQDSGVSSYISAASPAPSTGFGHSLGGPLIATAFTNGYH
# Protocol text: nsRBNS (natural sequence RNA bind-n-seq); RBNS binding buffer (assumed for nsRBNS): 25 mM Tris pH 7.5, 150 mM KCl, 3 mM MgCl2, 0.01% Triton X-100, 500 ug/ml BSA, 20 U/ml SUPERase-In, 4 C; UNK is unkempt and MSI1 is Musashi-1; names of the RNAs are library labels; protein concentration not given here; high values mean tight binding
In all, about 5,800 sequences were measured (“enrichment r”: median about 0.54, highest 2% from about 16 on). This is one part of a sample in which the highest values are shown more often than they occur.
All answers are understood in enrichment R, so give the number only.

Field: example entries. Status: answers known.
chr12:98549999:98550103:+|3pUTR|ENSG00000120802|unk|total|mutant (ssRNA) RNA: GGGAGUUCUACAGUCCGACGAUCUGUUUCCCAUACUGUUUUCAGCCUUUUGUUUAUAAUCCGAAAUUGUGAGAAGCUUCAUUCCGUGUUUAAAAAUGUGGGGAGAUAAAUCAGACUUAACAUGUAUGUAAGAUCAAUUCACUUCAACAGAGGAUUGAGCAUCA    0.426
chr12:104760787:104760888:+|3pUTR|ENSG00000171310|unk|total|mutant (ssRNA) RNA: GGGAGUUCUACAGUCCGACGAUCUUCUUUUCUAAUGGCAUUGAAACUUUAAAAAAAAUGGAUUCAACUGUUUUUGCAGAAUGCCGAAAGUAUUCUGUGUCCUUGGUUAAAGAAAUCCACUUGUGAAGUGUGCCUGGAAAAUGACAACAGAGGAUUGAGCAUCA    0.231

Alright, here's another binder for you.
**Q:** Sample chr12:909583:909684:+|3pUTR|ENSG00000060237|unk|FALSE|bound_elsewhere (ssRNA) RNA: GGGAGUUCUACAGUCCGACGAUCUAGCUCUGUCCUUUACUUAUUGAGACACUUUAACUUUUUCCUUUGUAUUUCCAUUGUAUUAGAUAAAUAAAUGUGAAUGUAAAAUUGUAUAAAUUACUGUACUUGAAUACUUCUGUUUCCCAACAGAGGAUUGAGCAUCA — what was its binding signal?
**A:** 13.1

This collection of values is drawn from paper PMC12136788.
